settings: in isopropanol, 313.15 K
metric_name: solubility (mole fraction)
Format: numeric value only, no unit, no commentary.

What does the record list as solubility (mole fraction) for C[C@]12CCC3=C4CCC(=O)C=C4CC[C@H]3[C@@H]1CC[C@@]2(O)CC#N ? 0.00323

---

details: in acetonitrile, 283.15 K
metric_name: solubility (mole fraction)
Just the number, please, no unit attached.

Quick one: solubility (mole fraction) of C[C@]12CCC3=C4CCC(=O)C=C4CC[C@H]3[C@@H]1CC[C@@]2(O)CC#N ? 0.00172

---

conditions: in ethyl acetate, 313.15 K
metric_name: solubility (mole fraction)

Give the measured solubility (mole fraction) of C[C@]12CCC3=C4CCC(=O)C=C4CC[C@H]3[C@@H]1CC[C@@]2(O)CC#N . 0.00374
